- System: Staphylococcus aureus CMX 686B
- PROTOCOL DETAILS: In-vitro antimicrobial activity primary screen (agar dilution MIC)
- Type: cell-based
- CONDITIONS USED: CMX686B, BHI agar, 20-24 h, read-out: MIC
For each entry below, report its MIC value.
Only the number, expressed in µg/mL, is required.

# get_value(readout= MIC, system= Staphylococcus aureus CMX 686B) for CC[C@H]1OC(=O)[C@H](C)[C@@H](O[C@H]2C[C@@](C)(OC)[C@H](NS(C)(=O)=O)[C@H](C)O2)[C@H](C)[C@@H](O[C@@H]2O[C@H](C)C[C@H](N(C)C)[C@H]2O)[C@](C)(O)C[C@@H](C)[C@@H]2O[C@@]1(C)C(=O)[C@H]2C 0.39

# get_value(readout= MIC, system= Staphylococcus aureus CMX 686B) for CC[C@H]1OC(=O)[C@H](C)[C@@H](O[C@H]2C[C@@](C)(OC)[C@H](NC(=O)OCc3ccccc3)[C@H](C)O2)[C@H](C)[C@@H](O[C@@H]2O[C@H](C)C[C@H](N(C)C)[C@H]2O)[C@](C)(O)C[C@@H](C)[C@@H]2O[C@@]1(C)C(=O)[C@H]2C 0.2

# get_value(readout= MIC, system= Staphylococcus aureus CMX 686B) for CC[C@H]1OC(=O)[C@H](C)[C@@H](O[C@H]2C[C@@](C)(OC)[C@H](NC(C)=O)[C@H](C)O2)[C@H](C)[C@@H](O[C@@H]2O[C@H](C)C[C@H](N(C)C)[C@H]2O)[C@](C)(O)C[C@@H](C)[C@@H]2O[C@@]1(C)C(=O)[C@H]2C 0.39

# get_value(readout= MIC, system= Staphylococcus aureus CMX 686B) for CC[C@H]1OC(=O)[C@H](C)[C@@H](O[C@H]2C[C@@](C)(OC)[C@H](N)[C@H](C)O2)[C@H](C)[C@@H](O[C@@H]2O[C@H](C)C[C@H](N(C)C)[C@H]2O)[C@](C)(O)C[C@@H](C)[C@@H]2O[C@@]1(C)C(=O)[C@H]2C 0.2

====

For each entry below, report its Cmax value.
- PROTOCOL DETAILS: Pharmacokinetic evaluation in dogs after a 10 mg/kg dose
- CONDITIONS USED: dog, plasma, po, Cmax (maximum concentration in blood), oral 10 mg/kg, microbiological assay
Only the number, expressed in ng/mL, is required.

Consider the compound CC[C@H]1OC(=O)[C@H](C)[C@@H](O[C@H]2C[C@@](C)(OC)[C@@H](O)[C@H](C)O2)[C@H](C)[C@@H](O[C@@H]2O[C@H](C)C[C@H](N(C)C)[C@H]2O)[C@](C)(O)C[C@@H](C)[C@@H]2O[C@@]1(C)[C@@H](N)[C@H]2C and give its measured Cmax. 3300

Consider the compound CC[C@H]1OC(=O)[C@H](C)[C@@H](O[C@H]2C[C@@](C)(OC)[C@@H](O)[C@H](C)O2)[C@H](C)[C@@H](O[C@@H]2O[C@H](C)C[C@H](N(C)C)[C@H]2O)[C@](C)(O)C[C@@H](C)[C@@H]2O[C@@]1(C)[C@@H](O)[C@H]2C and give its measured Cmax. 4300

Consider the compound CC[C@H]1OC(=O)[C@H](C)[C@@H](O[C@H]2C[C@@](C)(OC)[C@@H](O)[C@H](C)O2)[C@H](C)[C@@H](O[C@@H]2O[C@H](C)C[C@H](N(C)C)[C@H]2O)[C@](C)(O)C[C@@H](C)[C@@H]2O[C@@]1(C)C(=O)[C@H]2C and give its measured Cmax. 2500

Consider the compound CC[C@H]1OC(=O)[C@H](C)[C@@H](O[C@H]2C[C@@](C)(OC)[C@@H](O)[C@H](C)O2)[C@H](C)[C@@H](O[C@@H]2O[C@H](C)C[C@H](N(C)C)[C@H]2O)[C@](C)(O)C[C@@H](C)C(=O)[C@H](C)[C@@H](O)[C@]1(C)O [Std, Erythromycin A, reference compound] and give its measured Cmax. 2500

Consider the compound CC[C@H]1OC(=O)[C@H](C)[C@@H](O[C@H]2C[C@@](C)(OC)[C@@H](N)[C@H](C)O2)[C@H](C)[C@@H](O[C@@H]2O[C@H](C)C[C@H](N(C)C)[C@H]2O)[C@](C)(O)C[C@@H](C)[C@@H]2O[C@@]1(C)[C@@H](N)[C@H]2C and give its measured Cmax. 3500

Consider the compound CC[C@H]1OC(=O)[C@H](C)[C@@H](O[C@H]2C[C@@](C)(OC)[C@H](N)[C@H](C)O2)[C@H](C)[C@@H](O[C@@H]2O[C@H](C)C[C@H](N(C)C)[C@H]2O)[C@](C)(O)C[C@@H](C)[C@@H]2O[C@@]1(C)[C@@H](O)[C@H]2C and give its measured Cmax. 1700

====

- Tested on: Escherichia coli DC-2
- PROTOCOL DETAILS: In-vitro antimicrobial activity primary screen (agar dilution MIC)
- Type: cell-based
- CONDITIONS USED: DC2; Escherichia coli DC-2; BHI agar, 20-24 h; read-out: MIC
REPORTED METRIC: MIC (µg/mL)
Only the number, expressed in µg/mL, is required.

Consider the compound CC[C@H]1OC(=O)[C@H](C)[C@@H](O[C@H]2C[C@@](C)(OC)[C@H](NC(=O)OCc3ccccc3)[C@H](C)O2)[C@H](C)[C@@H](O[C@@H]2O[C@H](C)C[C@H](N(C)C)[C@H]2O)[C@](C)(O)C[C@@H](C)[C@@H]2O[C@@]1(C)C(=O)[C@H]2C and give its measured MIC. 100

Consider the compound CC[C@H]1OC(=O)[C@H](C)[C@@H](O[C@H]2C[C@@](C)(OC)[C@@H](OC(N)=O)[C@H](C)O2)[C@H](C)[C@@H](O[C@@H]2O[C@H](C)C[C@H](N(C)C)[C@H]2O)[C@](C)(O)C[C@@H](C)[C@@H]2O[C@@]1(C)C(=O)[C@H]2C and give its measured MIC. 100

Consider the compound CC[C@H]1OC(=O)[C@H](C)[C@@H](O[C@H]2C[C@@](C)(OC)[C@@H](NC(N)=O)[C@H](C)O2)[C@H](C)[C@@H](O[C@@H]2O[C@H](C)C[C@H](N(C)C)[C@H]2O)[C@](C)(O)C[C@@H](C)[C@@H]2O[C@@]1(C)C(=O)[C@H]2C and give its measured MIC. 100

Consider the compound CC[C@H]1OC(=O)[C@H](C)[C@@H](O[C@H]2C[C@@](C)(OC)[C@@H](N)[C@H](C)O2)[C@H](C)[C@@H](O[C@@H]2O[C@H](C)C[C@H](N(C)C)[C@H]2O)[C@](C)(O)C[C@@H](C)[C@@H]2O[C@@]1(C)[C@@H](N)[C@H]2C and give its measured MIC. 3.1

Consider the compound CC[C@H]1OC(=O)[C@H](C)[C@@H](O[C@H]2C[C@@](C)(OC)[C@H](O)[C@H](C)O2)[C@H](C)[C@@H](O[C@@H]2O[C@H](C)C[C@H](N(C)C)[C@H]2O)[C@](C)(O)C[C@@H](C)[C@@H]2O[C@@]1(C)C(=O)[C@H]2C and give its measured MIC. 3.1

Consider the compound CC[C@H]1OC(=O)[C@H](C)[C@@H](O[C@H]2C[C@@](C)(OC)[C@H](N)[C@H](C)O2)[C@H](C)[C@@H](O[C@@H]2O[C@H](C)C[C@H](N(C)C)[C@H]2O)[C@](C)(O)C[C@@H](C)[C@@H]2O[C@@]1(C)[C@@H](N)[C@H]2C and give its measured MIC. 3.1

Consider the compound CC[C@H]1OC(=O)[C@H](C)[C@@H](O[C@H]2C[C@@](C)(OC)[C@@H](N)[C@H](C)O2)[C@H](C)[C@@H](O[C@@H]2O[C@H](C)C[C@H](N(C)C)[C@H]2O)[C@](C)(O)C[C@@H](C)[C@@H]2O[C@@]1(C)[C@@H](O)[C@H]2C and give its measured MIC. 6.2

Consider the compound CC[C@H]1OC(=O)[C@H](C)[C@@H](O[C@H]2C[C@@](C)(OC)[C@H](N)[C@H](C)O2)[C@H](C)[C@@H](O[C@@H]2O[C@H](C)C[C@H](N(C)C)[C@H]2O)[C@](C)(O)C[C@@H](C)[C@@H]2O[C@@]1(C)C(=O)[C@H]2C and give its measured MIC. 100

Consider the compound CC[C@H]1OC(=O)[C@H](C)[C@@H](O[C@H]2C[C@@](C)(OC)[C@@H](O)[C@H](C)O2)[C@H](C)[C@@H](O[C@@H]2O[C@H](C)C[C@H](N(C)C)[C@H]2O)[C@](C)(O)C[C@@H](C)[C@@H]2O[C@@]1(C)[C@@H](N)[C@H]2C and give its measured MIC. 50

====

For each entry below, report its MIC value.
- Tested on: Staphylococcus aureus ATCC 6538P
- PROTOCOL DETAILS: In-vitro antimicrobial activity primary screen (agar dilution MIC)
- Format: cell-based
- CONDITIONS USED: Staphylococcus aureus, ATCC6538P, 24 h, BHI agar, 20-24 h
Form entry: enter the amount, then its unit.

# get_value(readout= MIC, system= Staphylococcus aureus ATCC 6538P) for CC[C@H]1OC(=O)[C@H](C)[C@@H](O[C@H]2C[C@@](C)(OC)[C@@H](O)[C@H](C)O2)[C@H](C)[C@@H](O[C@@H]2O[C@H](C)C[C@H](N(C)C)[C@H]2O)[C@](C)(OC)C[C@@H](C)C2=C(C)C(=O)[C@]1(C)O2 0.39 µg/mL

# get_value(readout= MIC, system= Staphylococcus aureus ATCC 6538P) for CC[C@H]1OC(=O)[C@H](C)[C@@H](O[C@H]2C[C@@](C)(OC)[C@@H](NC(N)=O)[C@H](C)O2)[C@H](C)[C@@H](O[C@@H]2O[C@H](C)C[C@H](N(C)C)[C@H]2O)[C@](C)(O)C[C@@H](C)[C@@H]2O[C@@]1(C)C(=O)[C@H]2C 0.1 µg/mL

# get_value(readout= MIC, system= Staphylococcus aureus ATCC 6538P) for CC[C@H]1OC(=O)[C@H](C)[C@@H](O[C@H]2C[C@@](C)(OC)[C@@H](O)[C@H](C)O2)[C@H](C)[C@@H](O[C@@H]2O[C@H](C)C[C@H](N(C)C)[C@H]2O)[C@](C)(O)C[C@@H](C)[C@@H]2O[C@@]1(C)[C@@H](N)[C@H]2C 0.2 µg/mL

# get_value(readout= MIC, system= Staphylococcus aureus ATCC 6538P) for CC[C@H]1OC(=O)[C@H](C)[C@@H](O[C@H]2C[C@@](C)(OC)[C@@H](O)[C@H](C)O2)[C@H](C)[C@@H](O[C@@H]2O[C@H](C)C[C@H](N(C)C)[C@H]2O)[C@](C)(O)C[C@@H](C)[C@@H]2O[C@@]1(C)C(=O)[C@H]2C 0.39 µg/mL
